Molecular target: 3-hydroxyacyl-CoA dehydrogenase type-2 (Homo sapiens)
Experiment: qHTS Assay for Inhibitors of HADH2 (Hydroxyacyl-Coenzyme A Dehydrogenase, Type II); further: nearly all actives have a fitted effect of over 60% in size
Settings: recombinant HADH2, NADH fluorescence, beta-hydroxybutyryl-CoA; series mostly up to 57.1 µM
In all, about 73,000 compounds went through this assay and about 2,500 (3.4%) were called active. Inconclusive results (about 7%) are left out. The call rests on the fitted dose curve; in most records, active means well fitted inhibition curve with a large enough effect; inconclusive means small, poorly fitted or top-dose-only effect; inactive means no such curve, though single readings can be large or run the other way. Only a selection was taken, and actives are over-represented in it overall.
Outcome (select one): Y for active, N for inactive

| COMPOUND | SYSTEM_TESTED | CATEGORY_LABEL |
| --- | --- | --- |
| COc1ccccc1N1CCN(CCN2C(=O)c3ccccc3C(C)(C)C2=O)CC1 | 3-hydroxyacyl-CoA dehydrogenase type-2 (Homo sapiens) | N |
| Cc1cc(C(F)(F)F)nn1-c1nc(-c2ccco2)cc(C(F)(F)F)n1 | 3-hydroxyacyl-CoA dehydrogenase type-2 (Homo sapiens) | N |
| CN(CCc1ccccn1)S(=O)(=O)c1ccc2c3c(cccc13)C(=O)N2 | 3-hydroxyacyl-CoA dehydrogenase type-2 (Homo sapiens) | Y |
| O=c1cc(-c2ccccc2)[nH]c2nc(Cl)ccc12 | 3-hydroxyacyl-CoA dehydrogenase type-2 (Homo sapiens) | Y |
| COc1ccc(OC)c(C(=O)CSc2nnc(-c3cccs3)o2)c1 | 3-hydroxyacyl-CoA dehydrogenase type-2 (Homo sapiens) | Y |
| CCCCn1c(SCC(=O)NCC2CCCO2)nc2ccc(N3CCOCC3)cc2c1=O (stereo not given) | 3-hydroxyacyl-CoA dehydrogenase type-2 (Homo sapiens) | Y |

For the next question, use this compound.
Problem: Can you look up the reported call for CCOC(=O)c1cc2n(c1N)-c1ccccc1C2=O for me?
Result: N

---

Molecular target: 3-hydroxyacyl-CoA dehydrogenase type-2 (Homo sapiens) (UniProt Q99714)
Sequence (Q99714 whole entry, looked up): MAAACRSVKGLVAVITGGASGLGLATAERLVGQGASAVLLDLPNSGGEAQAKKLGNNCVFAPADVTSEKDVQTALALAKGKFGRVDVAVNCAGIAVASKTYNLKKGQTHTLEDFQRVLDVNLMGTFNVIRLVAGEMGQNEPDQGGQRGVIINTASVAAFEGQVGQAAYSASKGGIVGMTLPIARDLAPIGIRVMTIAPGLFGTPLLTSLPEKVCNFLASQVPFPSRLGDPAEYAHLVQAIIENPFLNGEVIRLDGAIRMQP
Sequence (Q99714 whole entry, looked up): as above
Test: qHTS Assay for Inhibitors of HADH2 (Hydroxyacyl-Coenzyme A Dehydrogenase, Type II); further: nearly all actives have a fitted effect of over 60% in size
Conditions: recombinant HADH2, NADH fluorescence, beta-hydroxybutyryl-CoA; series mostly up to 57.1 µM
Out of some 73,000 compounds screened, about 2,500 (3.4%) were called active. Inconclusive results (about 7%) are left out. Calls follow the shape of the dose curve; as a rule, active = well fitted inhibition curve with a large enough effect; inconclusive = small, poorly fitted or top-dose-only effect; inactive = no such curve, though single readings can be large or run the other way. The full list was thinned out, with actives kept by preference.
// allowed return values: 1 (yes) for active, 0 (no) for inactive

Check out these entries, answers already filled in.
| COMPOUND | CATEGORY_LABEL |
| --- | --- |
| c1cncc(CNc2ccnc(-c3ccc4c(c3)OCO4)n2)c1 | 1 (yes) |
| COc1ccc(-c2nc3cnc(Oc4ccccc4)nc3n(Cc3cccs3)c2=O)cc1 | 0 (no) |
| CCCCCCCCCCCC(=O)O | 0 (no) |
| COC(=O)c1ccc2c(=O)n(CC3CCCO3)c(=S)[nH]c2c1 (stereo not drawn) | 0 (no) |
| COc1ccc(Oc2ncc3nc(-c4ccc(F)cc4)c(=O)n(C)c3n2)cc1 | 0 (no) |
| FC(F)(F)c1cc(-c2ccco2)nc(N2CCOCC2)n1 | 0 (no) |
| CC(C)NC(=O)N1CC[C@@]2(CCCN(C(=O)c3cccn3C)C2)C1 | 0 (no) |

Then there is this compound:
Problem: # outcome recorded in this test, key = c1ccc(-c2cn3cccnc3n2)cc1
Result: 1 (yes)
